Biological target: T1, his-tagged human CDH6 extracellular region protein (hCDH6 ECD-his) (human, UniProt P55285 19-615)
T1 construct: also called Human CDH6-his; hCDH6-his; not shown: his tag
T1 sequence: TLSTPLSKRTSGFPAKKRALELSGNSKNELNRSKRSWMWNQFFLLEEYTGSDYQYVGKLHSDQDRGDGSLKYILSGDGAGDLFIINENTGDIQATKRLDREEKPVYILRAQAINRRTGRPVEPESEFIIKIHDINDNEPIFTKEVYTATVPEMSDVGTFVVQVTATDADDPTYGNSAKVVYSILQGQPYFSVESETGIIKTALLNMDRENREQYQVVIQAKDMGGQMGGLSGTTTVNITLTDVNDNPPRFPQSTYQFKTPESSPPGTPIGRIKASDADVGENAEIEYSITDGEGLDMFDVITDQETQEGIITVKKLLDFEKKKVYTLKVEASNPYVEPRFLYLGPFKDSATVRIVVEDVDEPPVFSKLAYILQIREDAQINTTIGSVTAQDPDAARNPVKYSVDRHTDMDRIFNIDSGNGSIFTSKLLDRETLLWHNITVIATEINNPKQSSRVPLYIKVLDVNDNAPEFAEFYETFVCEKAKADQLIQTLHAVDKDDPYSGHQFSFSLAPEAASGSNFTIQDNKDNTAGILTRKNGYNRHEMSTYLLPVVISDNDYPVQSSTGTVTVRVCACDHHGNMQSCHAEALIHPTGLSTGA
Assay: SPR Biacore, antibody captured on Protein A
quantity: koff (s⁻¹)
Field format: number, assumed s⁻¹, no unit text.

Solved cases below.
CHI-CDH6-6 (antibody, human IgG1, kappa, V domains shown, also called CHI-hCDH6-6; chimeric antibody of murine CDH6-6) VH: EVQLQQSGPELVKPGDSVKMSCKASGYTFTDYYMAWVRQSHRKSLEWIGYIFPNSGGTDYSQKFKGKATLTVDKSSSTVYMELHSLTSEDSAVYYCARELGADYGDYYAMDHWGQGTSVSVSS VL: DIQMTQSPASLSASVGETVTITCRASENIDSYLAWYQQKQGKSPQLLVYSATLLADGVPSRFSGSGSGTQYSLKINSLKSEDVARYYCQHYYRTPPTFGSGTKLEIKR: 0.00424
hCDH6-6-H1L1 (antibody, V domains shown, Humanized) VH: EVQLVQSGAEVKKPGASVKVSCKASGYTFTDYYMAWVRQAPGQGLEWMGYIFPNSGGTDYSQKFKGRVTMTVDKSTSTVYMELSSLRSEDTAVYYCARELGADYGDYYAMDHWGQGTTVTVSS VL: DIQMTQSPSSLSASVGDRVTITCRASENIDSYLAWYQQKPGKSPKLLLYSATLLADGVPSRFSGSGSGTDYTLTISSLQPEDFATYYCQHYYRTPPTFGQGTKLEIK: 0.00743
hCDH6-6-H2L2 (antibody, V domains shown, Humanized) VH: EVQLVQSGAEVKKPGASVKVSCKASGYTFTDYYMAWVRQAPGQGLEWMGYIFPNSGGTDYSQKFKGRVTLTVDKSTSTVYMELSSLRSEDTAVYYCARELGADYGDYYAMDHWGQGTTVTVSS VL: DIQMTQSPSSLSASVGDRVTITCRASENIDSYLAWYQQKPGKSPKLLVYSATLLADGVPSRFSGSGSGTDYTLTISSLQPEDFATYYCQHYYRTPPTFGQGTKLEIK: 0.00468

Any idea what its koff is? The binder is hCDH6-6-H1L2 (antibody, V domains shown, Humanized) VH: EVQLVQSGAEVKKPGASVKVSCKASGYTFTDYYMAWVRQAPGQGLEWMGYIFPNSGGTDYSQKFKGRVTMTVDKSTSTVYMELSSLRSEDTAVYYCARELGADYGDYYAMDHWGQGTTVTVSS VL: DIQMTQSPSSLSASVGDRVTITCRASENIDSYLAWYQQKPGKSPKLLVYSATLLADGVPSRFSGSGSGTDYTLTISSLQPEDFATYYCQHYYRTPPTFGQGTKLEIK 0.00607

Look at this binder and give its reported koff. hCDH6-6-H2L1 (antibody, V domains shown, Humanized) VH: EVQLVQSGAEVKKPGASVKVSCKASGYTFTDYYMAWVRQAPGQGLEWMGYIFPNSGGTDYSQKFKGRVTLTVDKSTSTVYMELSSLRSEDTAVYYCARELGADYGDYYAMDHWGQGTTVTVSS VL: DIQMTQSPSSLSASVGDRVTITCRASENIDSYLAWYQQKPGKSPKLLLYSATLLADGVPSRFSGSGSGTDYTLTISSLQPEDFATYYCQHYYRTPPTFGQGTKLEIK 0.00616

Every entry's value here was drawn from patent US20260234242A1.
